Measured On: Human full-length Hsp90 (Homo sapiens)
Construct: E. coli expressed human full-length HSP90 protein, purified >95%; made in house; host or cells: E. coli
Sequence (P08238 whole entry): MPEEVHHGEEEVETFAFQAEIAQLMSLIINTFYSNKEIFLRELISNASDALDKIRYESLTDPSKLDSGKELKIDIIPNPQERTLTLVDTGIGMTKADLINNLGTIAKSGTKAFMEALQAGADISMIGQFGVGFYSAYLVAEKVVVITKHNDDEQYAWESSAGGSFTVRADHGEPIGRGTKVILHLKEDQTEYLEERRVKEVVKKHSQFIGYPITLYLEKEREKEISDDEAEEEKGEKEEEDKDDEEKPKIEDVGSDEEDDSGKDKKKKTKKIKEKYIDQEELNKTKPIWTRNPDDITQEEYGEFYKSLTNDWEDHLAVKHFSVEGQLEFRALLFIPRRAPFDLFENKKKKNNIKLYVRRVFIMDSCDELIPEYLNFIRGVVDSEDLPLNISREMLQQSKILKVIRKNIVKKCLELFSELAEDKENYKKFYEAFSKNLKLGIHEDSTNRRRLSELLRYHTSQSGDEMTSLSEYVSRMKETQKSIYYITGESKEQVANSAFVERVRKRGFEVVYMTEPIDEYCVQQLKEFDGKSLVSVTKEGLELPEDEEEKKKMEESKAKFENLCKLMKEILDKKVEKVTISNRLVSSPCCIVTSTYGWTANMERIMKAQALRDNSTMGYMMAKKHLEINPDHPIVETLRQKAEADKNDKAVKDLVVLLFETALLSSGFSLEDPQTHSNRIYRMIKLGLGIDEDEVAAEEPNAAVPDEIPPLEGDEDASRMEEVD
Assay: Fluorescence polarization assay (competitive binding to HSP90, probe RBT0045864-FAM)
Measurement Setup: fluorescence polarization assay, activity range; read-out: Hsp90 FP IC50
The following compounds are listed with their measured IC50 values.

>  <Compound>
CCOC(=O)c1cc2c(-c3c[nH]c4ccccc34)nc(N)nc2s1

>  <IC50>
> 10 µM

$$$$
>  <Compound>
CCNC(=O)c1cc2c(-c3ccc(C#N)cc3Cl)nc(N)nc2s1

>  <IC50>
< 10 µM

$$$$
>  <Compound>
CCNCc1ccc(C)c(-c2nc(N)nc3sc(C(=O)NCC)cc23)c1

>  <IC50>
< 10 µM

$$$$
>  <Compound>
Nc1nc(-c2ccc(Cl)cc2Cl)c2cc(C(=O)N3CCC(N)C3)sc2n1 (stereo not drawn)

>  <IC50>
< 10 µM

$$$$
>  <Compound>
CCNC(=O)c1cc2c(-c3cc(OCCN4CCCCC4)c(Cl)cc3Cl)nc(N)nc2s1

>  <IC50>
< 10 µM

$$$$
>  <Compound>
CCOC(=O)c1cc2c(-c3ccc(CN4CCCCC4)cc3)nc(N)nc2s1

>  <IC50>
> 10 µM

$$$$
>  <Compound>
Nc1nc(-c2ccc(Cl)cc2Cl)c2cc(C(=O)NCc3ccc(F)cc3)sc2n1

>  <IC50>
< 10 µM

$$$$
>  <Compound>
CCOC(=O)c1cc2c(-c3cc(C=O)c(C)cc3C)nc(N)nc2s1

>  <IC50>
< 10 µM

$$$$
>  <Compound>
Nc1nc(-c2ccc(Cl)cc2Cl)c2cc(C(=O)NCc3ccncc3)sc2n1

>  <IC50>
< 10 µM

$$$$

----------
Examples of compounds with documented pIC50 follow.
Measured On: Human full-length Hsp90 (Homo sapiens)
Construct: E. coli expressed human full-length HSP90 protein, purified >95%; made in house; host or cells: E. coli
Assay: Fluorescence polarization assay (competitive binding to HSP90, probe RBT0045864-FAM)
Measurement Setup: fluorescence polarization assay, activity range; read-out: Hsp90 FP IC50
pIC50: −log10 of the molar value.
Value Type: pIC50

>  <Smiles Data>
CCNC(=O)c1cc2c(-c3cc(OCc4noc(-c5ccccc5OC)n4)c(Cl)cc3Cl)nc(N)nc2s1

>  <Value Type>
pIC50

>  <Observed Measurement>
> 5.00

$$$$
>  <Smiles Data>
CCNC(=O)c1cc2c(-c3cc(CNCCC(N)=O)ccc3C)nc(N)nc2s1

>  <Value Type>
pIC50

>  <Observed Measurement>
> 5.00

$$$$
>  <Smiles Data>
Nc1nc(-c2ccc(Cl)cc2Cl)c2cc(C(=O)NCCCO)sc2n1

>  <Value Type>
pIC50

>  <Observed Measurement>
> 5.00

$$$$
>  <Smiles Data>
CCNC(=O)c1cc2c(-c3cc(CNCc4cccnc4)ccc3C)nc(N)nc2s1

>  <Value Type>
pIC50

>  <Observed Measurement>
> 5.00

$$$$
>  <Smiles Data>
CCOC(=O)c1cc2c(-c3ccccc3)nc(N)nc2s1

>  <Value Type>
pIC50

>  <Observed Measurement>
> 5.00

$$$$
>  <Smiles Data>
CCOC(=O)c1cc2c(-c3ccc(OCCCO)cc3C)nc(N)nc2s1

>  <Value Type>
pIC50

>  <Observed Measurement>
> 5.00

$$$$
>  <Smiles Data>
CCNC(=O)c1cc2c(-c3cc(C)c(C)cc3C)nc(N)nc2s1

>  <Value Type>
pIC50

>  <Observed Measurement>
> 5.00

$$$$
>  <Smiles Data>
Cc1ccc(-c2nc(N)nc3sc(C(=O)NCc4ccccc4)cc23)c(C)c1

>  <Value Type>
pIC50

>  <Observed Measurement>
> 5.00

$$$$
>  <Smiles Data>
Nc1nc(-c2ccccc2)c2cc(C(=O)NCCc3cccs3)sc2n1

>  <Value Type>
pIC50

>  <Observed Measurement>
< 5.00

$$$$
>  <Smiles Data>
Nc1nc(-c2ccc(Cl)cc2Cl)c2cc(C(=O)Nc3ccc(S(N)(=O)=O)cc3)sc2n1

>  <Value Type>
pIC50

>  <Observed Measurement>
> 5.00

$$$$
>  <Smiles Data>
CCOC(=O)c1cc2c(NCCCN3CCCC3=O)nc(N)nc2s1

>  <Value Type>
pIC50

>  <Observed Measurement>
< 5.00

$$$$
>  <Smiles Data>
CCNC(=O)c1cc2c(-c3cccc(O)c3)nc(N)nc2s1

>  <Value Type>
pIC50

>  <Observed Measurement>
> 5.00

$$$$
>  <Smiles Data>
CCOC(=O)c1cc2c(Nc3ccc4cn[nH]c4c3)nc(N)nc2s1

>  <Value Type>
pIC50

>  <Observed Measurement>
< 5.00

$$$$
>  <Smiles Data>
CCNC(=O)COc1ccc(-c2nc(N)nc3sc(C(=O)OCC)cc23)c(C)c1

>  <Value Type>
pIC50

>  <Observed Measurement>
> 5.00

$$$$
>  <Smiles Data>
CCN(CC)CCOc1cc(-c2nc(N)nc3sc(C(=O)NC(CO)CO)cc23)c(Cl)cc1Cl

>  <Value Type>
pIC50

>  <Observed Measurement>
> 5.00

$$$$
>  <Smiles Data>
NC(=O)[C@H](Cc1cnc[nH]1)NC(=O)c1cc2c(-c3ccc(Cl)cc3Cl)nc(N)nc2s1

>  <Value Type>
pIC50

>  <Observed Measurement>
> 5.00

$$$$
>  <Smiles Data>
CCOC(=O)c1cc2c(-c3ccc(CC)cc3Cl)nc(N)nc2s1

>  <Value Type>
pIC50

>  <Observed Measurement>
> 5.00

$$$$
>  <Smiles Data>
Nc1nc(-c2ccc(Cl)cc2Cl)c2cc(C(=O)NCc3cccs3)sc2n1

>  <Value Type>
pIC50

>  <Observed Measurement>
> 5.00

$$$$
>  <Smiles Data>
CCOC(=O)c1cc2c(-c3ccccc3C)nc(N)nc2s1

>  <Value Type>
pIC50

>  <Observed Measurement>
> 5.00

$$$$
>  <Smiles Data>
CCOC(=O)c1cc2c(NC(c3ccccc3)c3ccccc3)nc(N)nc2s1

>  <Value Type>
pIC50

>  <Observed Measurement>
< 5.00

$$$$
>  <Smiles Data>
CN(c1ccccc1)c1nc(N)nc2sc(C(N)=O)cc12

>  <Value Type>
pIC50

>  <Observed Measurement>
< 5.00

$$$$
>  <Smiles Data>
Nc1nc(-c2ccccc2)c2cc(C(=O)NCCc3cnc[nH]3)sc2n1

>  <Value Type>
pIC50

>  <Observed Measurement>
> 5.00

$$$$
>  <Smiles Data>
CC(C)NC(=O)c1cc2c(-c3ccc(Cl)cc3Cl)nc(N)nc2s1

>  <Value Type>
pIC50

>  <Observed Measurement>
> 5.00

$$$$
>  <Smiles Data>
CCOC(=O)c1cc2c(-c3ccsc3)nc(N)nc2s1

>  <Value Type>
pIC50

>  <Observed Measurement>
< 5.00

$$$$
>  <Smiles Data>
CCCNC(=O)c1ccc(C)c(-c2nc(N)nc3sc(C(=O)NC4CC4)cc23)c1

>  <Value Type>
pIC50

>  <Observed Measurement>
> 5.00

$$$$
>  <Smiles Data>
CCNC(=O)c1cc2c(-c3cc(OCCN4CCOCC4)c(Cl)cc3Cl)nc(N)nc2s1

>  <Value Type>
pIC50

>  <Observed Measurement>
> 5.00

$$$$
>  <Smiles Data>
CCOC(=O)c1cc2c(-c3ccc(O)cc3C)nc(N)nc2s1

>  <Value Type>
pIC50

>  <Observed Measurement>
> 5.00

$$$$
>  <Smiles Data>
CCOC(=O)c1cc2c(-c3cccnc3)nc(N)nc2s1

>  <Value Type>
pIC50

>  <Observed Measurement>
< 5.00

$$$$
>  <Smiles Data>
COC(=O)c1cc2c(N(C)Cc3ccccc3)nc(N)nc2s1

>  <Value Type>
pIC50

>  <Observed Measurement>
< 5.00

$$$$
>  <Smiles Data>
C[C@H](NC(=O)c1cc2c(-c3ccc(Cl)cc3Cl)nc(N)nc2s1)C(N)=O

>  <Value Type>
pIC50

>  <Observed Measurement>
> 5.00

$$$$
>  <Smiles Data>
CCNC(=O)c1cc2c(-c3cc(CNCc4ccccc4)ccc3C)nc(N)nc2s1

>  <Value Type>
pIC50

>  <Observed Measurement>
> 5.00

$$$$
>  <Smiles Data>
COC(=O)c1cc2c(Nc3ccccc3)nc(N)nc2s1

>  <Value Type>
pIC50

>  <Observed Measurement>
< 5.00

$$$$
>  <Smiles Data>
CCOC(=O)c1cc2c(-c3ccc(OCC#N)cc3C)nc(N)nc2s1

>  <Value Type>
pIC50

>  <Observed Measurement>
> 5.00

$$$$
>  <Smiles Data>
CCOC(=O)c1cc2c(-c3cc(C(=O)OC)ccc3C)nc(N)nc2s1

>  <Value Type>
pIC50

>  <Observed Measurement>
> 5.00

$$$$
>  <Smiles Data>
CCOC(=O)c1cc2c(-c3ccc(OCC(C)C)cc3C)nc(N)nc2s1

>  <Value Type>
pIC50

>  <Observed Measurement>
< 5.00

$$$$
>  <Smiles Data>
CCOC(=O)c1cc2c(-c3ccc(CN4CCCC4)cc3)nc(N)nc2s1

>  <Value Type>
pIC50

>  <Observed Measurement>
< 5.00

$$$$
